- METHOD: MRP1 drug-resistance reversers in H69AR cells – cell-based, doxorubicin co-treatment, pilot screen (AID 601)
- TEST CONDITIONS: H69AR cells + 2 uM doxorubicin, CellTiter-Glo, 72 h; at 10 µM; hits give high values
The source made the active and inactive calls.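 How the source made its calls: active means viability loss from added drug above about 55%, and viability with drug at most 40%, in both replicates (limit read from the data, passing the limit was not always enough); inconclusive means both conditions met in only one replicate; inactive means neither replicate meets both conditions.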
Examples of molecules with documented differential viability (reversal) follow.

{"RECORD SMILES": "C=C1CC[C@@]2(O)[C@H]3Cc4ccc(O)c5c4[C@@]2(CCN3CC2CC2)[C@H]1O5", "differential viability (reversal)": "14.7% (inactive)"}
{"RECORD SMILES": "CC(=O)[C@H]1CC[C@H]2[C@@H]3CC[C@H]4C[C@H](O)CC[C@]4(C)[C@H]3C(=O)C[C@]12C", "differential viability (reversal)": "12.1% (inactive)"}
{"RECORD SMILES": "O=P(OCC(F)(F)C(F)F)(N1CCCCC1)N1CCCCC1", "differential viability (reversal)": "17.1% (inactive)"}
{"RECORD SMILES": "Cc1cccc(-n2c(-c3ccco3)nc3ccccc3c2=O)n1", "differential viability (reversal)": "-2.13% (inactive)"}

Attention now shifts to the item below.
Could you share which differential viability (reversal) value was measured for COc1ccc(Cc2nccc3cc(OC)c(OC)cc23)cc1OC ? -0.28% (inactive)
